Tested on: SK-MEL-28
protocol_description: NCI tumour cell line growth inhibition, 48 h
Activity calls are given as the source filed them. No stated cut-off is given here; in the data, active = GI50 up to about 1.1 µM and inactive = higher.
readout_label: GI50

Inquiry: Give its GI50 value. Item: CON(C)C(=O)C(C)NC(=O)OCc1ccccc1 (stereo not drawn)
Reply text: > 100 µM (inactive)

Would you kindly look at the next entry?
Inquiry: So what does the record say about GI50 for COC(=O)C1CC(C(=O)OC)c2nc3cc(C)c(C)cc3nc21 (stereo not drawn) ?
Reply text: > 100 µM (inactive)

###

Tested on: 786-0
protocol_description: NCI tumour cell line growth inhibition, 48 h
The source made the active and inactive calls. Cut-off read from the data, not from the text of the source: active = GI50 up to about 1.1 µM and inactive = higher.
# valid calls are TRUE for active, FALSE for inactive; nothing else

Inquiry: Record lookup: outcome of this test for O=C1CCC2(c3ccccc3)OCC([C@@H](O)c3ccccc3)N12 (stereo not given in full) ?
Reply text: FALSE

Others:
Inquiry: GET /call?item= CC12CCC(/C(=N/c3ccc([N+](=O)[O-])cc3)C1=O)C2(C)C (stereo not given) returns the recorded outcome of this test.
Reply text: FALSE

Inquiry: Next: `O=C1C=C(Nc2cc(Cl)ccc2Cl)c2ccccc2C1=O`
Reply text: FALSE

Inquiry: Field entry: O=C(O)C1OC(Oc2cc(O)c3c(=O)cc(-c4ccc(O)cc4)oc3c2)C(O)C(O)C1O (stereo not given)
Reply text: FALSE

Inquiry: Also, `C/C(=N\NC(=S)N1CC2CCC(CC2)C1)c1nccs1` please.
Reply text: TRUE

Inquiry: Subsequent entry: `CC(C)C(=O)NC(=S)Nc1ccc([N+](=O)[O-])cc1C#N`
Reply text: FALSE

Inquiry: Next: COC(=O)c1ccccc1C1CN=NC12Cc1ccc3ccccc3c1C2=O (stereo not given)
Reply text: FALSE

Inquiry: Note, next up: `CCOc1ccccc1/N=N/c1ccc2oc(=O)c(C(C)=O)cc2c1`
Reply text: FALSE

###

System: ACHN
protocol_description: NCI tumour cell line growth inhibition, 48 h
Active and inactive are the calls of the source. Rule as the data show it: active = GI50 up to about 1.1 µM and inactive = higher.
Your reply should match one of these outcome classes. 1 for active, -1 for inactive

Inquiry: Can you look up the reported call for COc1cc2c(cc1OC)C(Cl)C(c1ccc(F)cc1)=C2Cl (configuration not stated) for me?
Reply text: -1

###

System: MOLT-4
protocol_description: NCI tumour cell line growth inhibition, 48 h
Calls of active or inactive are those of the source. Cut-off read from the data, not from the text of the source: active = GI50 up to about 1.1 µM and inactive = higher.
Parameter call: string, one of active, inactive

Inquiry: Kindly provide the recorded test outcome for the following molecule: CC1=CP(=O)(OC(C)C)C=C(C)C1=C(Cl)Cl (stereo not drawn)
Reply text: inactive

Inquiry: Next: `Cc1n[nH]c(=O)n1/N=C/c1ccco1`
Reply text: inactive

Inquiry: Follow-up entry: `CC(C)(C)c1cc([Si](C)(C)C)c(C#N)c([Si](C)(C)C)c1`
Reply text: inactive

Inquiry: Now try `O=[N+]([O-])c1ccc(Sc2c3ccccc3nc3ccccc23)nc1` .
Reply text: inactive

Inquiry: Another molecule to look at: COC12C=CC(CC1)c1c(O)ccc(O)c12 (stereo not drawn)
Reply text: inactive

Inquiry: Follow-up item: `CCCCCCCCCCCC(=O)OCCOCCOCCOCCOCCOCc1ccccc1`
Reply text: inactive

Inquiry: Also check `Cc1ccn2c(CCc3nnc4cc(C)ccn34)nnc2c1`
Reply text: inactive

Inquiry: Would you kindly repeat that for `CN1CC[C@@H](c2c(O)cc(O)c3c(=O)cc(-c4ccccc4Cl)oc23)[C@@H](O)C1` ?
Reply text: active

Inquiry: // same read-out, input: `CCOC(=O)c1c(N2CCN(C)CC2)[nH]c(=O)c(C(c2c(Cl)cccc2Cl)c2c(O)c(C(=O)OCC)c(N3CCN(C)CC3)[nH]c2=O)c1O`
Reply text: inactive

###

Reported GI50 values for a set of compounds
System: SK-MEL-2
protocol_description: NCI tumour cell line growth inhibition, 48 h
The source made the active and inactive calls. Cut-off read from the data, not from the text of the source: active = GI50 up to about 1.1 µM and inactive = higher.

// below: answered compounds
Inquiry: # returns recorded GI50 (system: SK-MEL-2) for `Cc1ccc(C(CCO)CCO)nc1`
Reply text: > 100 µM (inactive)

Inquiry: Same question for `Cc1ccc(/C(=C/C=C(C#N)C#N)Sc2cc(Cl)ccc2Cl)cc1` please.
Reply text: 8.75 µM (inactive)

Inquiry: Let us now turn to `CC(=O)NNc1nc(C)c(C(=O)/C=C/c2ccc(/C=C/C(=O)c3sc(NNC(C)=O)nc3C)cc2)s1`
Reply text: > 100 µM (inactive)

Inquiry: Try `Cc1cc(C(F)(F)F)cc(-n2nc(NS(=O)(=O)c3cc(C)c(Cl)cc3S)nc2N)n1` next.
Reply text: 26.2 µM (inactive)

Inquiry: Now consider `CO/C(N)=C(C#N)/N=C/c1ccccc1` .
Reply text: > 100 µM (inactive)

More entries:
Inquiry: Please provide the recorded GI50 for `O=C1C[C@H](Sc2ccccc2)C2(OCCO2)[C@H]2ON3CCC[C@@H]3[C@@H]12` , tested on SK-MEL-2.
Reply text: 3.75 µM (inactive)

Inquiry: Now try `CCCCCCCCCCCC(=O)OCCOCCOCCOCCOCCOCc1ccccc1` .
Reply text: > 100 µM (inactive)

Inquiry: Field entry: CC1CC/C(=C\c2ccc(Cl)cc2)c2nc(N)c(C#N)c(-c3ccc(Cl)cc3)c21 (centres undefined)
Reply text: 66.1 µM (inactive)

Inquiry: `COc1cc(O)c2c(c1O)C(=O)c1cc(C)ncc1C2=O` , same question.
Reply text: 22.3 µM (inactive)

Inquiry: Try `O=C1/C(=C/c2ccc(Cl)cc2)COc2ccc(Br)cc21` next.
Reply text: > 100 µM (inactive)

Inquiry: Could you do the same for `COc1cc(Nc2nc3ccccc3nc2-c2cccs2)cc(OC)c1OC` , please?
Reply text: 85.3 µM (inactive)

Inquiry: Next entry: `CC(C)C(=O)NC(=S)Nc1ccc([N+](=O)[O-])cc1C#N`
Reply text: > 100 µM (inactive)

###

Test system: SNB-19
protocol_description: NCI tumour cell line growth inhibition, 48 h
Active and inactive are the calls of the source. Cut-off read from the data, not from the text of the source: active = GI50 up to about 1.1 µM and inactive = higher.
readout_label: GI50

In the examples that follow, each entry is paired with its recorded GI50.
Inquiry: Which GI50 reading was recorded for the molecule O=C1OC(CS(=O)(=O)c2ccccc2)CC1O (stereo unspecified) ?
Reply text: > 100 µM (inactive)

Inquiry: # repeat for `COC(=O)[C@@H]1C[C@H]([Se]c2ccccc2)CN1C(=O)OCc1ccccc1`
Reply text: 62.7 µM (inactive)

Inquiry: Request: `O=C1NC(N2CCCCC2)=N/C1=C\c1ccccc1O`
Reply text: > 100 µM (inactive)

Others:
Inquiry: Report GI50 for `O=S1(=O)CCN(Cc2ccccn2)CC1` please.
Reply text: > 100 µM (inactive)

Inquiry: Also need O=C1/C(=C\c2cccc(Oc3ccccc3)c2)SC(c2ccccc2)N1c1cccc([N+](=O)[O-])c1 (stereo unspecified) , thanks.
Reply text: 65.3 µM (inactive)

Inquiry: Same lookup for `C=CCCON(C(=O)OC(C)(C)C)C(C)(C)C` , please.
Reply text: > 100 µM (inactive)

Inquiry: Queued: `O=C1CC2(CCNCC2)C(=O)N1N1CCCC1`
Reply text: > 100 µM (inactive)

Inquiry: Do the same for O=C(NC(Cc1ccccc1)(Cc1ccc(O)cn1)C(=O)O)c1ccccc1 (stereo unspecified) please
Reply text: > 100 µM (inactive)

Inquiry: Same for Cc1ccc(S(=O)(=O)N/N=C2\CC(C)OC3=C2CCCCCC3)cc1 (stereo unspecified)
Reply text: 22.2 µM (inactive)

Inquiry: Quick one: `O=C(/C=C/c1c(O)ccc2ccccc12)c1cccc(O)c1`
Reply text: > 100 µM (inactive)

###

Test system: OVCAR-3
protocol_description: NCI tumour cell line growth inhibition, 48 h
Activity calls are given as the source filed them. No stated cut-off is given here; in the data, active = GI50 up to about 1.1 µM and inactive = higher.
Hi there, use one of these labels in your reply, thanks! active, inactive

Please review the entries below; each comes with its answer.
Inquiry: Would you mind telling me which call this test gave `S=C(N/N=C(/c1ccccc1)c1ccccn1)N1CCCCC1` ?
Reply text: active

Inquiry: Also, `Cc1ccc(S(=O)(=O)NC(=O)C2C(=O)CC3(CCCCC3)CC2=O)cc1` please.
Reply text: inactive

Inquiry: Query `O=C(O)C(=O)Cc1ccc2c(c1)OCO2` next
Reply text: inactive

Inquiry: What do you get for N#CC(NC12CC3CC(CC(C3)C1)C2)c1ccccc1C(F)(F)F (stereo unspecified) ?
Reply text: inactive

***
Inquiry: Which outcome did this test record for the compound COc1cc2c(cc1OC)C13CC[N+]4(C)CC5=CCOC6CC(=O)N2C1C6C5CC34[O-] (stereo unspecified) ?
Reply text: inactive

###

Test system: SK-MEL-28
protocol_description: NCI tumour cell line growth inhibition, 48 h
Activity calls are given as the source filed them. Cut-off read from the data, not from the text of the source: active = GI50 up to about 1.1 µM and inactive = higher.
Property: GI50; scope: individual compounds

Inquiry: Looking for the measured GI50 of COc1ccc2nc(-c3cccs3)cc(C(O)CN3CCSCC3)c2c1 (stereo unspecified) , can you help?
Reply text: 24.9 µM (inactive)

New cases:
Inquiry: Given the compound CCCC(=O)Nc1cc(/C=C/C(=O)N2CC(CCl)c3ccc([N+](=O)[O-])cc32)n(C)c1 (stereo unspecified) , what is its reported GI50?
Reply text: > 100 µM (inactive)

Inquiry: Also check C[Si]1(C)C(c2ccccc2)=CC2C(c3ccccc3)(c3ccccc3)OC21c1ccccc1 (stereo unspecified)
Reply text: > 100 µM (inactive)

Where do these numbers come from? They come from ChEMBL document CHEMBL1201862.
